- target.desc: ER in T47D cells (Homo sapiens (Human), UniProt P03372)
- Sequence (P03372 whole entry): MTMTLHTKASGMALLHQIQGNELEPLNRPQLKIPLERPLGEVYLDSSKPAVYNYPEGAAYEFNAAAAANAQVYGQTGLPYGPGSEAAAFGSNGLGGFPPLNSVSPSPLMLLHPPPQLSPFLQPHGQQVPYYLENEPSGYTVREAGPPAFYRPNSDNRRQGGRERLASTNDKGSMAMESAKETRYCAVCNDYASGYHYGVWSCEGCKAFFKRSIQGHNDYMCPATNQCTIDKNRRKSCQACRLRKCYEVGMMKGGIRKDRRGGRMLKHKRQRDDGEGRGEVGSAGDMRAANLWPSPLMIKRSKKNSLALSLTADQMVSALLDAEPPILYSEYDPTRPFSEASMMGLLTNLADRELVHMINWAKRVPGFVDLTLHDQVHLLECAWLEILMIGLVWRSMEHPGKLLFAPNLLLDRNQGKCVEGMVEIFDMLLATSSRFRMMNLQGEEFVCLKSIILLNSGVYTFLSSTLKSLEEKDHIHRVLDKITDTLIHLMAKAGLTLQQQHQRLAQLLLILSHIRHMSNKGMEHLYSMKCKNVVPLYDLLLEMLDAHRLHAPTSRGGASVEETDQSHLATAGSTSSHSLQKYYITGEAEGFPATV
- assay.method.text: In-cell Western (ICW) ER degradation assay in T47D cells
- Assay type: cell-based
- measurement.context: ER degradation, 16 hrs treatment
Give measured DC50 for each item. Keep answers brief.

Some compounds with recorded DC50:
- COc1cc(N2CCC(CN3CCN4c5ccc6c(c5OCC4C3)CN([C@H]3CCC(=O)NC3=O)C6=O)CC2)c(F)cc1[C@@H]1c2ccc(O)cc2CC[C@@H]1c1ccccc1 (stereo in doubt): < 1 nM
- COc1cc(N2CCC3(CC2)C[C@@H](CN2CCN4c5cc6c(cc5OC[C@@H]4C2)C(=O)N([C@H]2CCC(=O)NC2=O)C6)CO3)ccc1[C@@H]1c2ccc(O)cc2CC[C@@H]1c1ccccc1 (single isomer, unassigned): < 1 nM
- COc1cc(N2CCC(CN3CCN4c5ccc(C(=O)N[C@H]6CCC(=O)NC6=O)nc5OC[C@H]4C3)CC2)c(F)cc1[C@@H]1c2ccc(O)cc2CC[C@@H]1c1ccccc1: < 1 nM
- O=C1CC[C@@H](Nc2ccc(C3CCN(C[C@@H]4COC5(CCN(c6ccc([C@@H]7c8ccc(O)cc8CC[C@@H]7c7ccccc7)cc6)CC5)C4)CC3)cc2)C(=O)N1 (single isomer, unassigned): 10 to 100 nM

Exercise: Complete the entry with DC50 for COc1cc(N2CCC3(CC2)CC(CN2CCC(c4ccc(NC5CCC(=O)NC5=O)cc4F)CC2)C3)ccc1[C@@H]1c2ccc(O)cc2CC[C@@H]1c1ccccc1 (stereo in doubt)
Solution: < 1 nM
